- TEST SYSTEM: UniProt Q9UNQ0
- Sequence (Q9UNQ0 whole entry, looked up): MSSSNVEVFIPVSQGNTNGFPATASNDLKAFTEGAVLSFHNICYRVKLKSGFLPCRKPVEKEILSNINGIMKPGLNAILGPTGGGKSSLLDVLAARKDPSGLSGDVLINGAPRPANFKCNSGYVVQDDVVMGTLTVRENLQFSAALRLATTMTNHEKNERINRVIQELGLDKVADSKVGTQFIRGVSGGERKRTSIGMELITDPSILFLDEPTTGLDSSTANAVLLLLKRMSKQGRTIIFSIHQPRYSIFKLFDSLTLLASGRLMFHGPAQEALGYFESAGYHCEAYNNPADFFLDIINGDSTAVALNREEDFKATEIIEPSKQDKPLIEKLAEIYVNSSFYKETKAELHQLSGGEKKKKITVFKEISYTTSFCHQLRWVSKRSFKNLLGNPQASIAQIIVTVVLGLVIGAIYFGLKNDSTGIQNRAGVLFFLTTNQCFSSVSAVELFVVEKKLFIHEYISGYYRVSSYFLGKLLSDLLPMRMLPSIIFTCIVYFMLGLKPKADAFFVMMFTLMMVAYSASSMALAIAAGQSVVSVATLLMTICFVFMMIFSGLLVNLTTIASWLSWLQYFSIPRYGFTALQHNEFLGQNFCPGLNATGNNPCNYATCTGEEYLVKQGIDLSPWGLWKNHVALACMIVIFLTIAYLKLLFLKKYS
- ASSAY DETAILS: ABCG2-mediated mitoxantrone transport inhibition – PLB985 cells, flow cytometry (AID 1347054)
- STATED CONDITIONS: PLB985-BCRP cells, mitoxantrone accumulation, at 10 µM
Activity calls are given as the source filed them.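 The calls were made as follows: active = clear block of the BCRP drug efflux pump at 10 µM versus solvent-only wells, p under 0.05; inactive = the rest.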
Classes used: true (1) for active, false (0) for inactive

COMPOUND	TEST SYSTEM	ASSIGNED LABEL
CN(Cc1ccc(C(C)(C)C)cc1)Cc1cccc2ccccc12	UniProt Q9UNQ0	false (0)
COc1ccc(C(=O)Nc2ccccc2CCC2CCCCN2C)cc1 (stereo unspecified)	UniProt Q9UNQ0	false (0)
C[C@]12CCC(=O)C=C1[C@@H]1C[C@@H]1[C@H]1[C@@H]3[C@@H]4C[C@@H]4[C@@]4(CCC(=O)O4)[C@@]3(C)CC[C@@H]12	UniProt Q9UNQ0	false (0)
O=C(Nc1c(Cl)cncc1Cl)c1ccc(OC(F)F)c(OCC2CC2)c1	UniProt Q9UNQ0	true (1)
CS(C)=O	UniProt Q9UNQ0	false (0)
CCCCN(CCCC)CCC(O)c1cc2c(Cl)cc(Cl)cc2c2cc(C(F)(F)F)ccc12 (stereo unspecified)	UniProt Q9UNQ0	false (0)
COc1cc(N)c(Cl)cc1C(=O)N[C@@H]1CCN(CCCOc2ccc(F)cc2)C[C@@H]1OC	UniProt Q9UNQ0	true (1)
CN(C/C=C/C#CC(C)(C)C)Cc1cccc2ccccc12	UniProt Q9UNQ0	false (0)
C=C1CC[C@H](O)C/C1=C/C=C1\CCC[C@]2(C)[C@@H]([C@H](C)CCCC(C)C)CC[C@@H]12	UniProt Q9UNQ0	false (0)
COc1cc(NS(C)(=O)=O)ccc1Nc1c2ccccc2nc2ccccc12	UniProt Q9UNQ0	false (0)
COc1ccc2c(c1)C13CCCC[C@@H]1C(C2)N(C)CC3 (stereo partly specified)	UniProt Q9UNQ0	false (0)
